- Organism: Homo sapiens
- ASSAY PROTOCOL: Inhibition of recombinant C-terminal His-tagged cN2 N-terminal 30 amino acid deletion mutant (unknown origin) expressed in Escherichia coli BL21 using IMP as substrate at 1 mM after 5 mins by green malachite phosphate assay
PARAMETER: inhibition (%)
The figure you give is taken to be in %; do not add the unit.

Request: # inhibition lookup, item CCOP(=O)(C[C@@H](O)[C@H]1O[C@@H](n2ccc(=O)[nH]c2=O)[C@H](O)[C@H]1O)OCC
Result: 26

Request: Okay, and Nc1ccn([C@@H]2O[C@H]([C@H](O)CP(=O)(O)O)[C@H](O)[C@H]2O)c(=O)n1 ?
Result: 48

Request: Okay, and CCOP(=O)(C[C@@H](O)[C@H]1O[C@@H](n2ccc(N)nc2=O)[C@H](O)[C@@H]1O)OCC ?
Result: 18

Request: Okay, and Nc1ccn([C@@H](CO)O[C@@H](CO)[C@H](O)CP(=O)(O)O)c(=O)n1 ?
Result: 45

Request: Okay, and O=c1ccn([C@@H]2O[C@H]([C@H](O)CP(=O)(O)O)[C@@H](O)[C@H]2O)c(=O)[nH]1 ?
Result: 72

Request: Okay, and Nc1ccn([C@@H]2O[C@H]([C@H](O)CP(=O)(O)O)[C@H](O)[C@@H]2O)c(=O)n1 ?
Result: 35

Request: Okay, and Nc1ccn([C@@H]2O[C@H]([C@@H](O)CP(=O)(O)O)[C@@H](O)[C@H]2O)c(=O)n1 ?
Result: 42

Request: Okay, and Nc1ccn([C@@H]2O[C@H]([C@H](O)CP(=O)(O)O)[C@@H](O)[C@@H]2O)c(=O)n1 ?
Result: 80

Request: Okay, and CCCCC#Cc1cn([C@@H]2O[C@H]([C@H](O)CP(=O)(O)O)[C@@H](O)[C@H]2O)c(=O)[nH]c1=O ?
Result: 45

Request: Okay, and CCOP(=O)(C[C@@H](O)[C@H](CO)O[C@H](CO)n1ccc(N)nc1=O)OCC ?
Result: 21

Request: Okay, and O=c1ccn([C@@H]2O[C@H]([C@H](O)CP(=O)(O)O)[C@H](O)[C@@H]2O)c(=O)[nH]1 ?
Result: 25

Request: Okay, and O=c1ccn([C@@H](CO)O[C@@H](CO)[C@H](O)CP(=O)(O)O)c(=O)[nH]1 ?
Result: 20
